target: CYP2C19 (Homo sapiens); construct: pooled human liver microsomes were assayed at 0.25 mg/mL concentration; from tissue; host or cells: pooled human liver microsomes; experiment: Cytochrome P450 inhibition; type: in vitro ADME; conditions: probe mephenytoin (4-hydroxylation), pooled human liver microsomes 0.25 mg/mL, read-out: CYP inhibition (% at 10 μM) 2C19
Sequence (P33261 whole entry): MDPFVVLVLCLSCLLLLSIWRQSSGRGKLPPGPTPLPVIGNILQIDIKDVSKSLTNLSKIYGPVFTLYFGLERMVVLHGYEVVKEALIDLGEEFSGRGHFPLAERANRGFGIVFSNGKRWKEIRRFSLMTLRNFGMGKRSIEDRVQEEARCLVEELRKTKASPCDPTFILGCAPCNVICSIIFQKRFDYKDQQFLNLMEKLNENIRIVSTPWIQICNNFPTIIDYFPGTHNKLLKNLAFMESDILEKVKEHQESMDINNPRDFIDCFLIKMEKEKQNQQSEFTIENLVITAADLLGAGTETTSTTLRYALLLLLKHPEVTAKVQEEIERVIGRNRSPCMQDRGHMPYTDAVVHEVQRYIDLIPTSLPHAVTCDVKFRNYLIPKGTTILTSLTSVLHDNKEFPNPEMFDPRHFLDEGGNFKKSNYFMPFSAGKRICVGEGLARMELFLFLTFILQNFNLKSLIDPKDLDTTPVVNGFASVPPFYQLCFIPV
RECORDED_ENDPOINT: inhibition at 10 min, 10 µM

CC(=O)c1cccc(NC(=O)Nc2ccc3sc(NS(=O)(=O)c4ccc(C)cc4)nc3c2)c1 :: < 1%

In the following, a different compound is considered.
// query May I ask what inhibition at 10 min, 10 µM has been recorded for Cc1ccc(S(=O)(=O)Nc2nc3cc(NC(=O)NCc4ccccc4)ccc3s2)cc1 ?
// result 15.4%

# credit: patent US20240132458A1
